# target or test system: FLuc-C-HiBiT (firefly luciferase) (Photinus pyralis, UniProt P08659, form not given/L550V)
# Sequence (P08659 2-550 L550V, form open): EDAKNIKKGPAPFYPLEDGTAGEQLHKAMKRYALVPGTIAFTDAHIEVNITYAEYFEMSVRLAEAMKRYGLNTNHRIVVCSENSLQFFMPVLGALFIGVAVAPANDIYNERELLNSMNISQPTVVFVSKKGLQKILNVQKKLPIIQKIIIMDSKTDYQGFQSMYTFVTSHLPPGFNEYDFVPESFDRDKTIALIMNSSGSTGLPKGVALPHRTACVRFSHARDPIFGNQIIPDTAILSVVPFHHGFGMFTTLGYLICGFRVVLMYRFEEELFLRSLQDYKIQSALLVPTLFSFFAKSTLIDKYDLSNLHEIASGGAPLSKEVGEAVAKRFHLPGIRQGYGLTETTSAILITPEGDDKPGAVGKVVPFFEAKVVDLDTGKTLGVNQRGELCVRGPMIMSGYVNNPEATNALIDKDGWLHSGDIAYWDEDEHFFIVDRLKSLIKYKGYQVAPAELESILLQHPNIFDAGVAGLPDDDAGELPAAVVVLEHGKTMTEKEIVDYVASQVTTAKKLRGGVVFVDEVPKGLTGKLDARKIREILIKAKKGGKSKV
# protocol description: Firefly luciferase (FLuc) enzymatic luminescence assay, FLuc-C-HiBiT
# Format: biochemical
# Design: key: % normalized; no enzyme control = 100% inhibition, DMSO = 0
# experimental context: 10 nM FLuc-C-HiBiT; normalized activity; Log [Compound], M -7.82
quantity kind: FLuc Enzyme
Would you mind answering with just the numeric figure?

Req: Form: Entry = Cc1ccc(-n2ncc3c(N4CCCCCC4)ncnc32)cc1 [compound 00139018] | System = FLuc-C-HiBiT (firefly luciferase) (Photinus pyralis, UniProt P08659, form not given/L550V) | FLuc Enzyme = ____
Resp: -2.4

Req: Another molecule to check: Fc1ccc(-c2cn3cc(Cc4ccccc4)sc3n2)cc1 [compound 00102110]
Resp: 4.1

Req: Another molecule to check: COc1ccc(-c2nc(-c3ccc(C(=O)O)cc3)no2)cc1 [compound 00168104]
Resp: -5.1

Req: Another molecule to check: CC(CNC(=O)C1CCN(C(=O)c2ncn3c2COC(c2ccccc2)C3)CC1)c1ccccc1 (centres unmarked) [compound 00449795]
Resp: 7.7

Req: Another molecule to check: O=C(O)CCSc1nnc(-c2ccc(Cl)cc2Cl)o1 [compound 00103142]
Resp: 4.2

Req: Another molecule to check: CNC(=O)c1cccc2c1CCN2C(=O)Nc1ccc(C)cc1 [compound 00430160]
Resp: 4.6

Req: Another molecule to check: O=C(O)c1cccc2c1CCN2C(=O)Nc1ccc(F)cc1 [compound 00432687]
Resp: -79.0

Req: Another molecule to check: CC1CCCN(c2ncnc3c2cnn3-c2ccccc2)C1 (centres unmarked) [compound 00081381]
Resp: 8.6

---

# target or test system: P. pyralis FLuc (Photinus pyralis, UniProt P08659)
# Sequence (P08659 whole entry): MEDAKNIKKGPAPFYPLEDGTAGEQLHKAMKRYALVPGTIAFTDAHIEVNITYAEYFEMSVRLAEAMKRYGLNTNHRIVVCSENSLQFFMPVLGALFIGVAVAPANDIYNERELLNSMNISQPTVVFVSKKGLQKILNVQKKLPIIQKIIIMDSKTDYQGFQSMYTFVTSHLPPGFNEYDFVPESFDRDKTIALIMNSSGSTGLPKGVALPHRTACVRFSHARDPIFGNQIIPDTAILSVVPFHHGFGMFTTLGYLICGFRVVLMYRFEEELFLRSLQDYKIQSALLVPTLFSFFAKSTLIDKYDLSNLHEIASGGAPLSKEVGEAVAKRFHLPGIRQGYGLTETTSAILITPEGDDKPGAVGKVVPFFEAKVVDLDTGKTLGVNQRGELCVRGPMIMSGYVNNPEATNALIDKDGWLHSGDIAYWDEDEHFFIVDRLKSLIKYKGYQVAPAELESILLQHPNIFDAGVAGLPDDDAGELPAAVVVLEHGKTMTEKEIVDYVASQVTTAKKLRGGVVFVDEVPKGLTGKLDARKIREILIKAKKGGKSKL
# protocol description: FLuc enzymatic luminescence assay, P. pyralis FLuc
# Type: biochemical
# experimental context: FLuc enzymatic assay; Clade S follow-up
quantity kind: Efficacy (%) FLuc E
Return type: number; implicit unit %.

Req: Form: Entry = Cc1ccc(C2Cn3cnc(C(=O)N4CCC(C(=O)NCc5ccccc5)CC4)c3CO2)cc1 (centres unmarked) | System = P. pyralis FLuc (Photinus pyralis, UniProt P08659) | Efficacy (%) FLuc E = ____
Resp: -51.95

Req: Another compound to check: CC(C)NC(=O)C1CCN(C(=O)c2ncn3c2COC(c2ccccc2)C3)CC1 (centres unmarked)
Resp: -88.78

Req: Another compound to check: O=C(Nc1ccccc1)C1CCN(C(=O)c2ncn3c2COC(c2ccc(F)cc2)C3)CC1 (centres unmarked)
Resp: -13.92

Req: Another compound to check: CC(C)CCNC(=O)C1CCN(C(=O)c2ncn3c2COC(c2ccc(F)cc2)C3)CC1 (centres unmarked)
Resp: -22.97

Req: Another compound to check: O=C(NCCc1ccccc1)C1CCN(C(=O)c2ncn3c2COC(c2ccccc2)C3)CC1 (centres unmarked)
Resp: -92.17

Req: Another compound to check: Cc1ccc(C2Cn3cnc(C(=O)N4CCC(C(=O)NCCCc5ccccc5)CC4)c3CO2)cc1 (centres unmarked)
Resp: -69.05

Req: Another compound to check: Cc1ccc(C2Cn3cnc(C(=O)N4CCC(C(=O)NCc5cc(F)ccc5F)CC4)c3CO2)cc1 (centres unmarked)
Resp: -40.44

Req: Another compound to check: O=C(NC1CCCCCC1)C1CCN(C(=O)c2ncn3c2COC(c2ccc(Cl)cc2)C3)CC1 (centres unmarked)
Resp: -16.55
